# collection of pIC50 values tested on PIK3CB (Homo sapiens, UniProt P42338)
# Sequence (P42338 whole entry): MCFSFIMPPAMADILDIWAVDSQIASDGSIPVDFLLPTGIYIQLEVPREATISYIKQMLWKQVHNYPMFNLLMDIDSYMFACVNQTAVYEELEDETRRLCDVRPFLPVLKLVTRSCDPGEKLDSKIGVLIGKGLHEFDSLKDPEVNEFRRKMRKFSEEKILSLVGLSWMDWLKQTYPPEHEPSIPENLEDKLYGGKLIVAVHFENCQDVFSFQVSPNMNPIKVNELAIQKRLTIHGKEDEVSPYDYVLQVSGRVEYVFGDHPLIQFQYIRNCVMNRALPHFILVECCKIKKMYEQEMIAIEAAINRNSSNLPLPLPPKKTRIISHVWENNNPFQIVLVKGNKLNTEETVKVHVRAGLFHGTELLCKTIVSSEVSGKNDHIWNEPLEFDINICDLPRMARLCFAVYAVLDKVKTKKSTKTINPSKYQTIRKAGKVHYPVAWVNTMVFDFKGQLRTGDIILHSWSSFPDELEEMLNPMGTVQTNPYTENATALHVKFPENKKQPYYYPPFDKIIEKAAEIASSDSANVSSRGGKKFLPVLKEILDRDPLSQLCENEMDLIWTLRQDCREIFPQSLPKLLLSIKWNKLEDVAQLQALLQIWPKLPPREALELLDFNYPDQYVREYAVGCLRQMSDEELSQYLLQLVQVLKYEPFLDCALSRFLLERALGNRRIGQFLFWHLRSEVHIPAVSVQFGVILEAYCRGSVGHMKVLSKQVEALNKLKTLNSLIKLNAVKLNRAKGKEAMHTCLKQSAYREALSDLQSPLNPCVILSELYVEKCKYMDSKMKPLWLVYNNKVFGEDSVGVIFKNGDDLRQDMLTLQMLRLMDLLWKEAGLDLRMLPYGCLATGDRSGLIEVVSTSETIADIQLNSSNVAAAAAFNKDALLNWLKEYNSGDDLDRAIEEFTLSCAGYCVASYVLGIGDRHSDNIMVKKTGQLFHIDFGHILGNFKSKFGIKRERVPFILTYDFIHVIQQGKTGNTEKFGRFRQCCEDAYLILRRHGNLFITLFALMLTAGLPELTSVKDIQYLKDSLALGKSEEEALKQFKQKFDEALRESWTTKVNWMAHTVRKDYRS
# Sequence (P27986 whole entry partner): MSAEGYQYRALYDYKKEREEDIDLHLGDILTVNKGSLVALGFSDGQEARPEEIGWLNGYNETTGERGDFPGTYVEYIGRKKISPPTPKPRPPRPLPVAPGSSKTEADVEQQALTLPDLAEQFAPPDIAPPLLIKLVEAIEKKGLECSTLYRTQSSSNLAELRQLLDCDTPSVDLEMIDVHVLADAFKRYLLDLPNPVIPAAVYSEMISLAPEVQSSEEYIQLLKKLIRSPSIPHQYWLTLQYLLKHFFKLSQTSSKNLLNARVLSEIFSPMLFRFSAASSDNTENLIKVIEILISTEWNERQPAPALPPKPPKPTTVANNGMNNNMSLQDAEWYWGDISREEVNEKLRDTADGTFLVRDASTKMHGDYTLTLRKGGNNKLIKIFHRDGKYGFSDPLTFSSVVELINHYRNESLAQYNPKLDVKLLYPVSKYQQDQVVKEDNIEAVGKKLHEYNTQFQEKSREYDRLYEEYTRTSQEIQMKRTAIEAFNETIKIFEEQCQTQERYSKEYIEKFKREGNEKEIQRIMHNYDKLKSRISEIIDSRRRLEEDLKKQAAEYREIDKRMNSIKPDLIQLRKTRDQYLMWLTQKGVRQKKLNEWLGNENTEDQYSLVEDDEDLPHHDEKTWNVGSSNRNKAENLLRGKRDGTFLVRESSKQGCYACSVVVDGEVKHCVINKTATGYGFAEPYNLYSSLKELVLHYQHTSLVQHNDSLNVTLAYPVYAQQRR
# pIC50 = -log10(concentration in molar units)

I am curious: what pIC50 value has been reported for `C=CCN(/C=C1/C(=O)O[C@H](COC)[C@@]2(C)C1=C(O)C(=O)C1=C2[C@H](OC(C)=O)C[C@]2(C)C(=O)CC[C@@H]12)CC=C` ?
7.06

Follow-up entry: C=CCN(C=C1C(=O)OC(COC)C2(C)C1=C(O)C(=O)C1=C2C(OC(C)=O)CC2(C)C(O)CCC12)CC=C (centres unmarked)
7.24

----------
assayDetails: clinical
particulars: human, in vivo, 8 mg
measure: Cmax (ng/mL)
Use ng/mL as the unit, but write only the number.

What does the data say about its Cmax? Entry: C=CCN(C=C1C(=O)OC(COC)C2(C)C1=C(O)C(=O)C1=C2C(OC(C)=O)CC2(C)C(O)CCC12)CC=C (stereo not shown)
1.14

----------
// IC50 collected for PIK3CD (Homo sapiens)
Provide only the numeric value, understood in nM.

* C=CCN(C=C1C(=O)OC(COC)C2(C)C1=C(O)C(=O)C1=C2C(OC(C)=O)CC2(C)C(O)CCC12)CC=C (centres unmarked) | 131

Now for another entry.
Item `C=CCN(/C=C1/C(=O)O[C@H](COC)[C@@]2(C)C1=C(O)C(=O)C1=C2[C@H](OC(C)=O)C[C@]2(C)C(=O)CC[C@@H]12)CC=C` has what recorded IC50?
124

----------
targetDesc: PIK3CA (Homo sapiens)
Sequence (P42336 whole entry): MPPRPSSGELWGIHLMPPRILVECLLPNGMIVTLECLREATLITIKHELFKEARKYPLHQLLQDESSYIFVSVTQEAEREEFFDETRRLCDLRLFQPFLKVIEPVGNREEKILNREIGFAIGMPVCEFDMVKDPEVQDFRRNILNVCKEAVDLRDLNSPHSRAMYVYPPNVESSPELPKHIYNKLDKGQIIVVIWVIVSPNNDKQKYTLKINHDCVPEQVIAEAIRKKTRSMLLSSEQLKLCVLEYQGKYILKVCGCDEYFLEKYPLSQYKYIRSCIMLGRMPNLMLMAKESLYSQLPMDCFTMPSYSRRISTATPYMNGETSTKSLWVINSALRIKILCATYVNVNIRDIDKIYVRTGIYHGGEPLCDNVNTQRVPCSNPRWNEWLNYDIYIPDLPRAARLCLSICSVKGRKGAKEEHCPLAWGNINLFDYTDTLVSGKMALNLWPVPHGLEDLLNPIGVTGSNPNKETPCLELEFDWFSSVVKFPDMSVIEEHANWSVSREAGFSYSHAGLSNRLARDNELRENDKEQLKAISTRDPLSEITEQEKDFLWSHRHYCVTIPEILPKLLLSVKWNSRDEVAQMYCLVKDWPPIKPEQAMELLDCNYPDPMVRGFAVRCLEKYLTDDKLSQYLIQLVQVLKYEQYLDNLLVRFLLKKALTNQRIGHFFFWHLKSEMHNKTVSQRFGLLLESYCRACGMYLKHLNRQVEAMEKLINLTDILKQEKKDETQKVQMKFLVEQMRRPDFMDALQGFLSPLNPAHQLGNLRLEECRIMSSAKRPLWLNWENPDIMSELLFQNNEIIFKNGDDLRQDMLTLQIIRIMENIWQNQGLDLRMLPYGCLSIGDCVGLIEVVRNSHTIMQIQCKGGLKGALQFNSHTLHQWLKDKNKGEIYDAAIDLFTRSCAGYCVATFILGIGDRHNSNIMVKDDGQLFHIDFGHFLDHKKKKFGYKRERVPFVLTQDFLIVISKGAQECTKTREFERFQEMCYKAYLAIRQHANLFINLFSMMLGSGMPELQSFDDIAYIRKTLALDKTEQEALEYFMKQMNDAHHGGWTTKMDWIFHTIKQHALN
Sequence (P27986 whole entry partner): as the sequence (P27986 whole entry partner) above
Recorded IC50 values for a group of molecules are listed next.
Give the value, in units of nM, as a plain number.

- C=CCN(/C=C1/C(=O)O[C@H](COC)[C@@]2(C)C1=C(O)C(=O)C1=C2[C@H](OC(C)=O)C[C@]2(C)C(=O)CC[C@@H]12)CC=C [PX-866]: 39

# ---- query molecule ----
Notebook entry, PIK3CA (Homo sapiens) assay: IC50 of C=CCN(C=C1C(=O)OC(COC)C2(C)C1=C(O)C(=O)C1=C2C(OC(C)=O)CC2(C)C(O)CCC12)CC=C (centres unmarked) [17-OH PX-866] = ?
14

----------
targetDesc: PIK3CG (Homo sapiens, UniProt P48736)
Sequence (P48736 whole entry): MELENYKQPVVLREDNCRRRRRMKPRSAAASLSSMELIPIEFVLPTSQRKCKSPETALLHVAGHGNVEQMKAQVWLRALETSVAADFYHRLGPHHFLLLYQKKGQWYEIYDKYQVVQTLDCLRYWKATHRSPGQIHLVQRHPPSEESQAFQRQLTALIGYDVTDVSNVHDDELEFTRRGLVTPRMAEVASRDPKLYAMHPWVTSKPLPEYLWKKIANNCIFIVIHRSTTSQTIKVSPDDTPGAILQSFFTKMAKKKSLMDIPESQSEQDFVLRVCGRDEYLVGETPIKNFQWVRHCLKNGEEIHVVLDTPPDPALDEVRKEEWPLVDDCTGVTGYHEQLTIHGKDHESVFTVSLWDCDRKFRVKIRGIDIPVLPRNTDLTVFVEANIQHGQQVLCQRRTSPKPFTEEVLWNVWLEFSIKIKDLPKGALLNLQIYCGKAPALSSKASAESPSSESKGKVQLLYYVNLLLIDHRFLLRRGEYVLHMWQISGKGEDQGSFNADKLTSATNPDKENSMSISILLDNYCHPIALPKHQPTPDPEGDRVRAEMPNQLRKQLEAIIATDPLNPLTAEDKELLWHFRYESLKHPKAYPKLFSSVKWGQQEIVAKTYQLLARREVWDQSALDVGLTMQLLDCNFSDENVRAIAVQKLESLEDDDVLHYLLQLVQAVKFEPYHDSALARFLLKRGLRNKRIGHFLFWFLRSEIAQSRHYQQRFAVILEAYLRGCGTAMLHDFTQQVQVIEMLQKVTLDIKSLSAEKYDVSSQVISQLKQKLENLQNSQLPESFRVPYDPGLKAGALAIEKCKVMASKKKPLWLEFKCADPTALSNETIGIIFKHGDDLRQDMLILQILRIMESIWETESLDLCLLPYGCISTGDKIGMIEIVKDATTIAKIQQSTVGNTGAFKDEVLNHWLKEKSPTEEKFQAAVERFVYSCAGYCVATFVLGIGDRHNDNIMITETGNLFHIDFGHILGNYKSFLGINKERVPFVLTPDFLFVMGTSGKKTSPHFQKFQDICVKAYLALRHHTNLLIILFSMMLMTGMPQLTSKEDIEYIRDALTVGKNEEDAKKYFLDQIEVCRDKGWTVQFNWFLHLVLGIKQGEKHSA
assayDetails: in vitro kinase assay, PIK3CG
Assay type: biochemical
measure: pIC50
// pIC50 here means minus log10 of the molar concentration (mol/L)

• C=CCN(C=C1C(=O)OC(COC)C2(C)C1=C(O)C(=O)C1=C2C(OC(C)=O)CC2(C)C(O)CCC12)CC=C (centres unmarked) = 6.83

From here, focus on the item given below.
Recall the recorded pIC50 for `C=CCN(/C=C1/C(=O)O[C@H](COC)[C@@]2(C)C1=C(O)C(=O)C1=C2[C@H](OC(C)=O)C[C@]2(C)C(=O)CC[C@@H]12)CC=C` with PIK3CG (Homo sapiens, UniProt P48736) and state it.
6.70

----------
assayDetails: clinical
particulars: human, in vivo, 8 mg
measure: half-life (h)
Please respond with the number in h and leave the unit unwritten.

Param item = C=CCN(C=C1C(=O)OC(COC)C2(C)C1=C(O)C(=O)C1=C2C(OC(C)=O)CC2(C)C(O)CCC12)CC=C (stereo not shown) [17-OH PX-866] ; retrieve measured half-life.
3.62
